test-summary: Oral cassette dosing PK/BBB studies
Type: in vivo, male Sprague-Dawley rats
cond: rat, brain and plasma; oral cassette dosing, male Sprague-Dawley rats; read-out: AUC brain/AUC plasma
measurement-type: Kp

>  <compound>
Cn1ccc(=O)c(O)c1CC(F)F [Apo7080]

>  <measurement-type>
Kp

>  <test-result>
0.76

$$$$
>  <compound>
Cc1c(O)c(=O)ccn1CC(F)(F)F [Apo6995]

>  <measurement-type>
Kp

>  <test-result>
1.2

$$$$
>  <compound>
CNC(c1cn(C)c(C)c(O)c1=O)C(F)(F)F (stereo not shown) [Apo7056]

>  <measurement-type>
Kp

>  <test-result>
0.56

$$$$
>  <compound>
CCc1c(O)c(=O)ccn1CC(F)(F)F [Apo7030]

>  <measurement-type>
Kp

>  <test-result>
1

$$$$
>  <compound>
CN(C)C(c1c(O)c(=O)ccn1C)C(F)(F)F (stereo not shown) [Apo7041]

>  <measurement-type>
Kp

>  <test-result>
0.75

$$$$
>  <compound>
Oc1c(I)cc(Cl)c2cccnc12 [Clioquinol, reference compound]

>  <measurement-type>
Kp

>  <test-result>
1.5

$$$$
>  <compound>
CN(C)Cc1c(O)c(=O)ccn1CC(F)(F)F [Apo7067]

>  <measurement-type>
Kp

>  <test-result>
1.5

$$$$

---

test-summary: Pharmacokinetics following oral administration to rats
Type: in vivo, male Sprague Dawley rats
cond: rat, oral 50 mg/kg in 0.5% CMC, dose-normalized
measurement-type: Plasma AUC_D_obs (kg·µg·h/mL/mg)

>  <compound>
Cc1c(O)c(=O)c(C(N2CCOCC2)C(F)(F)F)cn1C (stereo not shown) [Apo7435]

>  <measurement-type>
Plasma AUC_D_obs

>  <test-result>
0.516

$$$$
>  <compound>
Cc1[nH]cc(C(N2CCOCC2)C(F)(F)F)c(=O)c1O (stereo not shown) [Apo7433]

>  <measurement-type>
Plasma AUC_D_obs

>  <test-result>
0.860

$$$$
>  <compound>
Cn1ccc(=O)c(O)c1C(N1CCOCC1)C(F)(F)F (stereo not shown) [Apo7448]

>  <measurement-type>
Plasma AUC_D_obs

>  <test-result>
1.07

$$$$
>  <compound>
O=c1ccn(CC(F)(F)F)c(CN2CCOCC2)c1O [Apo7323]

>  <measurement-type>
Plasma AUC_D_obs

>  <test-result>
1.630

$$$$

---

Test system: human neuroblastoma MC-65 cells
test-summary: cells
cond: MC-65, cultured without tetracycline, viability below 80%
Listing of recorded CC2 (cytotoxic concentration) by entry.
measurement-type: CC2 (cytotoxic concentration) (µM)

>  <compound>
CNC(c1cn(C)c(C)c(O)c1=O)C(F)(F)F (stereo not shown) [Apo7056]

>  <relation-sign>
=

>  <test-result>
80

$$$$
>  <compound>
CN1CCN(C(c2c(O)c(=O)ccn2C)C(F)(F)F)CC1 (stereo not shown) [Apo7073]

>  <relation-sign>
=

>  <test-result>
20

$$$$
>  <compound>
Cn1ccc(=O)c(O)c1C(N1CCCCC1)C(F)(F)F (stereo not shown) [Apo7058]

>  <relation-sign>
=

>  <test-result>
80

$$$$
>  <compound>
Cc1cc(=O)c(O)cn1CC(F)(F)F [Apo6994]

>  <relation-sign>
>

>  <test-result>
80

$$$$
>  <compound>
C[C@H](NCc1cc(=O)c(O)c(C(O)C(F)(F)F)n1C)C(=O)O (stereo partly shown) [Apo7032]

>  <relation-sign>
=

>  <test-result>
40

$$$$
>  <compound>
Cc1cc(=O)c(O)c(CN2CCCCC2)n1CC(F)(F)F [Apo7071]

>  <relation-sign>
=

>  <test-result>
20

$$$$
>  <compound>
CN(C)C(c1c(O)c(=O)c(Cl)cn1C)C(F)(F)F (stereo not shown) [Apo7060]

>  <relation-sign>
=

>  <test-result>
20

$$$$
>  <compound>
O=c1ccn(CC(F)(F)F)c(CN2CCOCC2)c1O [Apo7323]

>  <relation-sign>
=

>  <test-result>
80

$$$$
>  <compound>
Cn1ccc(=O)c(O)c1C(N1CCOCC1)C(F)(F)F (stereo not shown) [Apo7448]

>  <relation-sign>
=

>  <test-result>
40

$$$$
>  <compound>
Cc1cc(=O)c(O)c(CN2CCOCC2)n1CC(F)(F)F [Apo7434]

>  <relation-sign>
=

>  <test-result>
40

$$$$

---

test-summary: Stepwise formation constants for Fe-ligand system by titration in 0.1M NaCl
Format: physicochemical
cond: Example 53: Log β131 − pKa1(C)
Reported Log β130 (Fe3+) values for a set of molecules

>  <molecule>
Cc1c(O)c(=O)c(C(N2CCOCC2)C(F)(F)F)cn1C (stereo not shown) [Apo7435]

>  <Log β130 (Fe3+)>
35.6

$$$$
>  <molecule>
O=c1ccn(CC(F)(F)F)c(CN2CCOCC2)c1O [Apo7323]

>  <Log β130 (Fe3+)>
35.7

$$$$
>  <molecule>
CNC(c1cn(C)c(C)c(O)c1=O)C(F)(F)F (stereo not shown) [Apo7056]

>  <Log β130 (Fe3+)>
36.5

$$$$
>  <molecule>
CN(C)Cc1c(O)c(=O)ccn1CC(F)(F)F [Apo7067]

>  <Log β130 (Fe3+)>
34.5

$$$$

---

The entries below come with measured K111 values attached.
test-summary: Stepwise formation constants for Fe-ligand system by titration in 0.1M NaCl
Type: physicochemical
cond: stepwise constant, Fe-ligand system, Example 53
measurement-type: K111

>  <molecule>
O=c1ccn(CC(F)(F)F)c(CN2CCOCC2)c1O

>  <measurement-type>
K111

>  <test-result>
18.4

$$$$
>  <molecule>
Cc1c(O)c(=O)c(C(N2CCOCC2)C(F)(F)F)cn1C (stereo not shown)

>  <measurement-type>
K111

>  <test-result>
15.9

$$$$
>  <molecule>
CN(C)Cc1c(O)c(=O)ccn1CC(F)(F)F

>  <measurement-type>
K111

>  <test-result>
20.0

$$$$
>  <molecule>
CNC(c1cn(C)c(C)c(O)c1=O)C(F)(F)F (stereo not shown)

>  <measurement-type>
K111

>  <test-result>
18.7

$$$$

---

Test system: human neuroblastoma MC-65 cells
test-summary: cells
cond: Homo sapiens, MC65, 48 h, read-out: TH (threshold protective concentration)
Entries and their minimal effective concentration

>  <compound>
Cc1c(Cl)c(=O)c(O)c(CC(F)(F)F)n1C [Apo7040]

>  <minimal effective concentration>
1 µM

$$$$
>  <compound>
Cc1cc(=O)c(O)cn1CC(F)(F)F [Apo6994]

>  <minimal effective concentration>
1 µM

$$$$
>  <compound>
Cn1cc(Cl)c(=O)c(O)c1C(N1CCCCC1)C(F)(F)F (centres unmarked) [Apo7061]

>  <minimal effective concentration>
1 µM

$$$$
>  <compound>
Cn1ccc(=O)c(O)c1CC(F)F [Apo7080]

>  <minimal effective concentration>
0.1 µM

$$$$
>  <compound>
CNC(c1cn(C)c(C)c(O)c1=O)C(F)(F)F (centres unmarked) [Apo7056]

>  <minimal effective concentration>
0.1 µM

$$$$
>  <compound>
CCc1c(O)c(=O)ccn1CC(F)(F)F [Apo7030]

>  <minimal effective concentration>
1 µM

$$$$
>  <compound>
Cc1cc(=O)c(O)c(C(N2CCOCC2)C(F)(F)F)n1C (centres unmarked) [Apo7333]

>  <minimal effective concentration>
1 µM

$$$$
>  <compound>
Cc1c(Cl)c(=O)c(O)c(C(N(C)C)C(F)(F)F)n1C (centres unmarked) [Apo7059]

>  <minimal effective concentration>
1 µM

$$$$
>  <compound>
Cn1ccc(=O)c(O)c1C(C(F)F)N1CCN(c2ccccn2)CC1 (centres unmarked) [Apo7316]

>  <minimal effective concentration>
1 µM

$$$$
>  <compound>
Cc1c(O)c(=O)ccn1CC(F)(F)F [Apo6995]

>  <minimal effective concentration>
0.1 µM

$$$$
>  <compound>
CN(C)Cc1cc(=O)c(O)c(C(O)C(F)(F)F)n1C (centres unmarked) [Apo7022]

>  <minimal effective concentration>
0.1 µM

$$$$

---

List of AUC values.
test-summary: Oral cassette dosing PK/BBB studies
Format: in vivo, male Sprague-Dawley rats
cond: rat, plasma; oral cassette dosing, male Sprague-Dawley rats, AUC normalized to 1 mg/kg dose

>  <molecule>
Cn1ccc(=O)c(O)c1CC(F)F

>  <units>
ng·h/mL

>  <AUC>
920

$$$$
>  <molecule>
CCc1c(O)c(=O)ccn1CC(F)(F)F

>  <units>
ng·h/mL

>  <AUC>
590

$$$$
>  <molecule>
CN(C)C(c1c(O)c(=O)ccn1C)C(F)(F)F (stereo not shown)

>  <units>
ng·h/mL

>  <AUC>
600

$$$$
>  <molecule>
CN(C)Cc1c(O)c(=O)ccn1CC(F)(F)F

>  <units>
ng·h/mL

>  <AUC>
500

$$$$
>  <molecule>
CNC(c1cn(C)c(C)c(O)c1=O)C(F)(F)F (stereo not shown)

>  <units>
ng·h/mL

>  <AUC>
1380

$$$$
>  <molecule>
Oc1c(I)cc(Cl)c2cccnc12 [Clioquinol, reference compound]

>  <units>
ng·h/mL

>  <AUC>
28

$$$$
>  <molecule>
Cc1c(O)c(=O)ccn1CC(F)(F)F

>  <units>
ng·h/mL

>  <AUC>
260

$$$$

The measurements presented in this section are drawn from patent US9938240B2.
